# Tested on: NOMO1
# assay: cell viability relative to DMSO control; higher = less cytotoxic
# testContext: HPLM + 10% dialyzed FBS; 48 h; 15.4 µM
Items are presented alongside their recorded cell viability.
Give just the number in %; leave the unit off.

Some solved entries appear below for comparison.
CC[C@H](NC(C)C)[C@H](O)c1ccc(O)c2[nH]c(=O)ccc12; 96.8
CC(=O)OCC(=O)[C@@]12OC(C)(C)O[C@@H]1C[C@H]3[C@@H]4C[C@H](F)C/5=C/C(=O)/C=C\[C@]5(C)[C@@]4(F)[C@@H](O)C[C@]23C; 120
C/C(=C\c1csc(C)n1)[C@@H]1C[C@@H]2O[C@]2(C)CCC[C@H](C)[C@H](O)[C@@H](C)C(=O)C(C)(C)[C@@H](O)CC(=O)O1; 27.6
C=CC(=O)Nc1cccc(Oc2nc(Nc3ccc(N4CCN(C)CC4)cc3OC)ncc2Cl)c1; 45.1
OC1=CC2=C(C(=O)\C=C(/O2)C3=CC=CC=C3)C(=C1O)O; 82.8

Task item: Provide measured cell viability value, entry: CCCC(CCC)C(=O)[O-]
Reply: 84.9

Task item: Tell us which cell viability value is on record for O=C(O)CCNc1cc(N2CCc3ccccc3CC2)nc(-c2ccccn2)n1
Reply: 94.5

Task item: // Input: Cn1c(=O)c2[nH]cnc2n(C)c1=O . Output its cell viability only.
Reply: 102

Task item: Determine from records and report cell viability for CC1=CC=C2\N=C/3N(CC[C@@]3(O)C(=O)C2=C1)C4=CC=CC=C4
Reply: 88.9

Task item: Name the recorded cell viability of the compound listed here: CC(C[N+](C)(C)C)OC(N)=O (stereo not drawn)
Reply: 139

Task item: Given the compound Cc1cccc(N(C)C(=S)Oc2ccc3ccccc3c2)c1 , write its reported cell viability.
Reply: 92

Task item: Consider the compound CCCc1nc2c(C)cc(-c3nc4ccccc4n3C)cc2n1Cc1ccc(-c2ccccc2C(=O)O)cc1 . State its measured cell viability.
Reply: 134

Task item: Quick one: give measured cell viability for O=C(NCCO[N+](=O)[O-])c1cccnc1
Reply: 123

* * *

Each entry below carries its reported cell viability.
# System: NOMO1
# assay: cell viability relative to DMSO control; higher = less cytotoxic
# testContext: HPLM + 10% dialyzed FBS; 48 h; 0.569 µM
Kindly answer with a numeric value in %, unit omitted.

// below: answered compounds
CO[C@H]1/C=C/O[C@@]2(C)Oc3c(C)c(O)c4c(O)c(c(/C=N\N5CCN(C6CCCC6)CC5)c(O)c4c3C2=O)NC(=O)/C(C)=C\C=C\[C@H](C)[C@H](O)[C@@H](C)[C@@H](O)[C@@H](C)[C@H](OC(C)=O)[C@@H]1C; 79.3
Cc1ccc(NC(=O)c2cccc(N(C)C)c2)cc1NC(=O)c1ccc(O)cc1; 146
CCc1c(O)cc(O)c(C(=O)c2ccc(OCCN3CCOCC3)c(OC)c2)c1CC(=O)N(CCOC)CCOC; 114

Let us examine a further case.
Task item: Answer with the recorded cell viability of COc1nccc(-c2c(-c3ccc(F)cc3)ncn2C2CCC(O)CC2)n1 (centres undefined) only.
Reply: 111

* * *

# Tested on: SEM cells
# assay: AUC of viability dose-response curve (% viability x log10 dose units); higher = less sensitive
# testContext: HPLM + 10% dialyzed FBS; 48 h
For each record, check the reported AUC of viability dose-response curve: if it is below 400 write y, else write n.

CCCCCCCCCCCCCCCC(=O)O[C@@H]1[C@@H](O)[C@@H](O)[C@@H]([C@H](NC(=O)[C@@H]2C[C@@H](CCC)CN2C)[C@H](C)Cl)O[C@@H]1SC.Cl; n
CCc1ccc(C(=O)Nc2cc(CN3CCN(C)CC3)cc(C(F)(F)F)c2)cc1C#Cc1cnc2ccnn2c1; n
CC(C)C(=O)Nc1ncc(-c2cc(C(F)F)nn2-c2c(Cl)cccc2Cl)s1; n

// switching to the query compound
Task item: Confirm or reject: AUC of viability dose-response curve of CCCOc1ccc2[nH]c(NC(=O)OC)nc2c1 lies strictly below 400
Reply: y

* * *

cell viability: recorded values
# Tested on: P12-Ichikawa
# assay: cell viability relative to DMSO control; higher = less cytotoxic
# testContext: RPMI 5 mM glucose + 10% FBS; 48 h; 0.0211 µM
Write down the numeric answer in % and omit the unit.

O=[N+]([O-])c1ccc(Nc2ccccc2-c2ccccc2)c2nonc12; 91.1
CN1/C=C(\N=C(NC2=CC=C(C=C2)C(=O)N3CCOCC3)/C1=O)/C4=C(C)C(=CC=C4)NC(=O)C5=CC=C(C=C5)C(C)(C)C; 91.2

Could you now consider this next molecule?
Task item: Entry CC(C)(C)Cn1c(N)nc2ccc(-c3[nH]c(C(C)(C)C)nc3-c3ccc(F)cc3)nc21 needs its cell viability filled in; supply it.
Reply: 90.6

* * *

# Tested on: P12-Ichikawa
# assay: cell viability relative to DMSO control; higher = less cytotoxic
# testContext: RPMI 5 mM glucose + 10% dialyzed FBS; 48 h; 0.000781 µM
readout: cell viability (%)
Express the result in % but write the number alone.

Check out these entries, answers already filled in.
COc1cc(NC(=O)c2ccc(-c3ccc(Cl)cc3)o2)cc(OC)c1; 84
Cn1c(=O)c2[nH]cnc2n(C)c1=O; 115
Cn1cnc(-c2cc3nccc(Oc4ccc(NC(=S)NC(=O)Cc5ccccc5)cc4F)c3s2)c1; 80.4
OCCNC1CCCc2c1[nH]c1ccc(-c3ccccc3)cc21 (stereo not given); 105

// switching to the query molecule
Task item: # return cell viability of C[C@H]1C[C@H]2[C@@H]3CCC4=CC(=O)C=C[C@]4(C)[C@H]3C(=O)C[C@]2(C)[C@@]1(O)C(=O)CO (system: P12-Ichikawa)
Reply: 83.7

* * *

# System: P12-Ichikawa
# assay: cell viability relative to DMSO control; higher = less cytotoxic
# testContext: HPLM + 10% dialyzed FBS; 48 h; 46.1 µM
readout: cell viability (%)
Express it in %; write the number only.

Task item: Please give the documented cell viability of CN1\N=N/C2=C(N=C[N]2C1=O)C(N)=O
Reply: 88.8

Task item: # return recorded cell viability for input O=[S+]([O-])(CCSSCC[S+](=O)([O-])[O][Na])[O][Na]
Reply: 129

Task item: # return recorded cell viability for input FC(F)(F)C1=CC=C2C(SCCCCCO\C3=C\O\C(CN4CCOCC4)=C/C3=O)=CC=NC2=C1
Reply: 88.1

Task item: Give recorded cell viability. COc1ccc2c(OCc3nnc4ccc(-c5ccccc5)nn34)ccnc2c1
Reply: 28.1

Task item: Item C[C@]12CC[C@@H]3c4ccc(O)cc4CC[C@H]3[C@@H]1CC[C@@H]2O : provide cell viability
Reply: 27.1

Task item: Give reported cell viability value for O=C(C1CC1)N1CC[C@@H](Cn2c(-c3ccc(-c4ccc5occc5c4)cc3)nc3cnccc32)C1
Reply: 111

Task item: Tell me cell viability reported for NC1CCC(Nc2nc(Nc3ccc(C(=O)N4CCCCC4)cc3)c3ncn(-c4cccc(F)c4)c3n2)CC1 (stereo unspecified)
Reply: 134

Task item: Using known records, supply cell viability for O=C(O)c1ccc(-c2c[nH]c3ncc(-c4ccccc4)cc23)cc1C1CCCC1
Reply: 92.6

Task item: Please give the documented cell viability of CNC(=O)c1ccc(N2C(=S)N(c3ccc(C#N)c(C(F)(F)F)c3)C(=O)C2(C)C)cc1F
Reply: 107

Task item: Return cell viability (reported value) for this compound: CN1C2=CC(=O)/C(=N/NC(N)=O)C=C2CC1S(=O)(=O)[O-].[Na+] (stereo unspecified)
Reply: 112

Task item: Determine its reported cell viability: CCc1c(O)cc(O)c(C(=O)c2ccc(OCCN3CCOCC3)c(OC)c2)c1CC(=O)N(CCOC)CCOC
Reply: 40.9

* * *

# Test system: P12-Ichikawa
# assay: cell viability relative to DMSO control; higher = less cytotoxic
# testContext: HPLM + 10% dialyzed FBS; 48 h; 1.71 µM
readout: cell viability (%)
API: value field is a number in %; no unit string.

Task item: Consider the molecule COc1ccc2c(OCc3nnc4ccc(-c5ccccc5)nn34)ccnc2c1 and give its recorded cell viability.
Reply: 95.9

Task item: For the molecule C=CC(=O)Nc1cccc(Oc2nc(Nc3ccc(N4CCN(C)CC4)cc3OC)ncc2Cl)c1 , report cell viability.
Reply: 79.6

Task item: Identify cell viability associated with the molecule COc1ccccc1OCCNCC(O)COc1cccc2[nH]c3ccccc3c12 (configuration not stated)
Reply: 119

Task item: Give cell viability for the following molecule: O=C(Nc1ccc([N+](=O)[O-])cc1Cl)c1cc(Cl)ccc1O
Reply: 88

Task item: Assign cell viability to the following record: CO[C@H]1/C=C/O[C@@]2(C)Oc3c(C)c(O)c4c(O)c(c(/C=N\N5CCN(C6CCCC6)CC5)c(O)c4c3C2=O)NC(=O)/C(C)=C\C=C\[C@H](C)[C@H](O)[C@@H](C)[C@@H](O)[C@@H](C)[C@H](OC(C)=O)[C@@H]1C
Reply: 71.5

Task item: Supply recorded cell viability for C[C@H]1C[C@H]2[C@@H]3CCC4=CC(=O)C=C[C@]4(C)[C@H]3C(=O)C[C@]2(C)[C@@]1(O)C(=O)CO here.
Reply: 94.8

Task item: Kindly indicate its recorded cell viability. Item: O=C(O)CSCC(=O)NC1CCSC1=O (configuration not stated)
Reply: 114

Task item: Tell me its cell viability given NC(=O)c1ccc(-c2nc(-c3ccc4c(c3)OCO4)c(-c3ccccn3)[nH]2)cc1 as the entry.
Reply: 114

Task item: Give cell viability for CC(=O)OCC(=O)[C@@]12OC(C)(C)O[C@@H]1C[C@H]3[C@@H]4C[C@H](F)C/5=C/C(=O)/C=C\[C@]5(C)[C@@]4(F)[C@@H](O)C[C@]23C
Reply: 74.5

Task item: Answer with the recorded cell viability of CC(C)(C)Cn1c(N)nc2ccc(-c3[nH]c(C(C)(C)C)nc3-c3ccc(F)cc3)nc21 only.
Reply: 78.9

Task item: Could you please provide reported cell viability for CCCOc1ccc2[nH]c(NC(=O)OC)nc2c1 ? Thanks!
Reply: 21.8

Task item: Let me know recorded cell viability for CN(CCOc1ccc(NS(C)(=O)=O)cc1)CCc1ccc(NS(C)(=O)=O)cc1 , thanks.
Reply: 111
